melting point values by entry

Please review the entries below; each comes with its answer.
COc1cc2c(c3c1OC(C)(C)C3)C(c1cccc(N3CCNS3(=O)=O)c1)=NC(C)(C)C2 = 145 to 147 °C
COc1ccc(-c2ncccc2OC2SCC(O)C(O)C2O)cc1 (centres undefined) = 137 °C
O=C(O)c1cc(F)cc(-c2cccc3cc(Cc4cc(F)cc(Cl)c4)sc23)c1 = 168 to 170 °C

We now examine a further compound.
Query string: Please give the documented melting point of CC(C)(C)OC(=O)N1CCc2c(n(CCO)c3cc(Cl)c(Cl)cc23)CC1
Result string: 130 to 133 °C

----------
melting point values by entry

Please review the entries below; each comes with its answer.
CC(C)(C)c1cc(N)n(-c2c(Cl)cc(C(F)(F)F)cc2Cl)n1 = 110 to 120 °C
COC(=O)Cc1coc2c(O)cccc12 = 58 to 59 °C
c1cncc(C2CCCCS2)c1 (racemic) = 49 °C

Query string: Please give the documented melting point of O=C(CC(Cc1ccccc1)C(=O)O)c1ccc(F)cc1 (single isomer, unassigned; (+))
Result string: 88 °C

Query string: Please give the documented melting point of O=Cc1ccc(OC[C@H]2CO2)cc1
Result string: 32 °C

Query string: Please give the documented melting point of Nc1ncccc1-c1nc2ccc(-c3cccnc3)nc2n1-c1ccc(CNC(=O)c2ccccc2)cc1
Result string: 253 to 256 °C

Query string: Please give the documented melting point of NS(=O)(=O)C1C=CC=CC1(CCNC(=O)C=Cc1cccs1)OCCOC(F)(F)F (stereo unspecified)
Result string: 203 to 205 °C

Query string: Please give the documented melting point of COc1cc(C2CCN(C[C@H](O)CO)CC2)ccc1Nc1ncc2ccc(-c3ccccc3N(C)S(C)(=O)=O)n2n1
Result string: 108 to 116 °C

Query string: Please give the documented melting point of Brc1ccc(NN=C(Cc2ccco2)c2ccccc2)nc1
Result string: 105 to 107 °C

Query string: Please give the documented melting point of CCN(CC)C(=O)c1ccoc1-c1ccc(N(C)C)cc1
Result string: 73 to 74 °C

Query string: Please give the documented melting point of Cc1cc(C)c(Nc2nc(C)ccc2S(=O)(=O)c2ccc(OCc3ccc(F)cc3)cc2)c(C)c1
Result string: 178 to 180 °C

Attribution: a melting point compilation (Tetko et al.; mined from patent text by program, amines drawn as free bases though some values may be those of a salt)
